All figures here come from the supplement of paper PMC8612539.

test system: Histophilus somni; assay: minimum inhibitory concentration (MIC); conditions: isolate (source animal id): 156
Each item that follows carries a reported minimum inhibitory concentration.
Answer format: numeric, µg/mL implied, no suffix.

- CNC(C)C1CCC(N)C(OC2C(N)CC(N)C(OC3OCC(C)(O)C(NC)C3O)C2O)O1 (centres undefined): 16

Retrieve minimum inhibitory concentration measured for `CS(=O)(=O)c1ccc([C@@H](O)[C@@H](CF)NC(=O)C(Cl)Cl)cc1` and print it.
1

---

system: Escherichia coli; assay: minimum inhibitory concentration (MIC); details: isolate (source animal id): 176
We begin with a simple list: items and their reported minimum inhibitory concentration.

• CCN1CCN(c2cc3c(cc2F)c(=O)c(C(=O)O)cn3C2CC2)CC1 = ≤ 0.12 µg/mL
• CC1(C)S[C@@H]2[C@H](NC(=O)Cc3ccccc3)C(=O)N2[C@H]1C(=O)O = > 8 µg/mL
• CC[C@H]1OC(=O)C[C@@H](O)[C@H](C)[C@@H](O[C@@H]2O[C@H](C)[C@@H](O)[C@H](N(C)C)[C@H]2O)[C@@H](CCN2C[C@H](C)C[C@H](C)C2)C[C@@H](C)C(=O)/C=C/C(C)=C/[C@@H]1CO[C@@H]1O[C@H](C)[C@@H](O)[C@@H](OC)[C@H]1OC = > 16 µg/mL

Write minimum inhibitory concentration of `NC[C@@H]1O[C@H](O[C@H]2[C@@H](O)[C@H](O[C@@H]3[C@@H](O)[C@H](N)C[C@H](N)[C@H]3O[C@H]3O[C@H](CN)[C@@H](O)[C@H](O)[C@H]3N)O[C@@H]2CO)[C@H](N)[C@@H](O)[C@@H]1O` ; system used: Escherichia coli
≤ 4 µg/mL

For Escherichia coli, give the measured minimum inhibitory concentration of the entry `CC[C@H]1OC(=O)C[C@@H](O)[C@H](C)[C@@H](O[C@@H]2O[C@H](C)[C@@H](O)[C@H](N(C)C)[C@H]2O)[C@@H](CCN2CCCCC2)C[C@@H](C)C(=O)/C=C/C(C)=C/[C@@H]1CN1CCCCC1`
8 µg/mL
